targetSystem: peroxidase-anti-peroxidase (PAP) immune complexes (UniProt P00433)
Sequence (P00433 31-338, one chain of several): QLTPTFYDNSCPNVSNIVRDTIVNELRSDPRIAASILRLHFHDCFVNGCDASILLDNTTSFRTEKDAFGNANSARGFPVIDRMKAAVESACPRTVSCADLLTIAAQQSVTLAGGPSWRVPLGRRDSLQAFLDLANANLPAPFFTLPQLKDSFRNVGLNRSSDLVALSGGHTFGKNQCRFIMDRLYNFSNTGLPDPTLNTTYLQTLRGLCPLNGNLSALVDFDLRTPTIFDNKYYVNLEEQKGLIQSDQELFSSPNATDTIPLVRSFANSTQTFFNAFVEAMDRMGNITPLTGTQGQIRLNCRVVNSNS
procedureText: reverse ELISA: immune complexes with peptide; competitor: immobilised IgG4
Positions of bridges follow the written chain, without caps; N, C: chain ends. No end group written: not given here.

- binder: "DCAWHLGELAACT (cyclized by a disulfide bond between the two cysteine residues) [… (SEQ ID NO:42)]"
  OD 405 nm [OD]: 0.557
- binder: "DCARHLGELVWCT (disulfide 2-12 (inferred)) [… (SEQ ID NO:4)]"
  OD 405 nm [OD]: 0.096
- binder: "RCARHLGELVWCT (disulfide 2-12 (inferred)) [… (SEQ ID NO:5)]"
  OD 405 nm [OD]: 0.191
- binder: "APPDCARHLGELVWCT (cyclized by a disulfide bond between the two cysteine residues) [… (printed in Table 8 with SEQ ID NO:14)]"
  OD 405 nm [OD]: 0.107
- binder: "PCARHLGELVWCT (disulfide 2-12 (inferred)) [… (SEQ ID NO:41)]"
  OD 405 nm [OD]: 0.129
